All figures here come from ChEMBL document CHEMBL4480436.

Assay: 1-Octanol/DDH2O partition coefficient, log P of the compound incubated for 48 hrs under stirring condition measured by UV-Vis spectrophotometric method
Format: physicochemical
Settings: 1-octanol/DDH2O
endpoint-name: logP at 48 h
# output: bare number, no unit

Q: Any idea what logP at 48 h was measured for CN(c1ccc(NC(=O)c2ccc(C#N)cc2)cc1OCc1ccc(C(F)(F)F)cc1)S(=O)(=O)Cc1ccccc1 ?
Ans: 2.9

###

Would you mind telling me the reported selectivity ratio of each entry?
Assay: Selectivity index, ratio of IC50 for HEK293 cells to IC50 for Trypanosoma brucei brucei Lister 427
Assay type: toxicity
Details: human, read-out: Ratio IC50

Q: Any idea what selectivity ratio was measured for CS(=O)(=O)Nc1ccc(NC(=O)c2cc(C(F)(F)F)cc(C(F)(F)F)c2)cc1Cl ?
Ans: 18

Q: Do the same for CCS(=O)(=O)Nc1ccc(NC(=O)c2cccc(C(F)(F)F)c2)cc1F please
Ans: 3

Q: Do the same for COc1cc(NC(=O)c2ccc(Cl)cc2)ccc1NS(=O)(=O)C(F)(F)F please
Ans: > 5

Q: Do the same for CCS(=O)(=O)Nc1ccc(NC(=O)c2ccc(Cl)cc2)cc1F please
Ans: < 1

Q: Do the same for CCS(=O)(=O)Nc1ccc(NC(=O)c2ccc(C#N)cc2)cc1Cl please
Ans: > 7

Q: Do the same for CS(=O)(=O)Nc1ccc(NC(=O)c2ccc(Cl)c([N+](=O)[O-])c2)cc1Cl please
Ans: < 4

Q: Do the same for CCS(=O)(=O)Nc1ccc(NC(=O)c2ccc(Cl)cc2)cc1C please
Ans: < 3

Q: Do the same for CCS(=O)(=O)Nc1ccc(NC(=O)c2ccc(Cl)c([N+](=O)[O-])c2)cc1OC please
Ans: < 2

Q: Do the same for N#Cc1ccc(C(=O)Nc2ccc(NS(=O)(=O)C(F)(F)F)c(Cl)c2)cc1 please
Ans: > 23

Q: Do the same for CCS(=O)(=O)Nc1ccc(NC(=O)c2cc(C(F)(F)F)cc(C(F)(F)F)c2)cc1F please
Ans: > 28

Q: Do the same for O=C(Nc1ccc(NS(=O)(=O)C(F)(F)F)c(F)c1)c1ccc(Cl)cc1 please
Ans: < 2

Q: Do the same for CCS(=O)(=O)Nc1ccc(NC(=O)c2cc(C(F)(F)F)cc(C(F)(F)F)c2)cc1Cl please
Ans: 19

Q: Do the same for CS(=O)(=O)Nc1ccc(NC(=O)c2ccc(Cl)cc2)cc1Cl please
Ans: < 3

Q: Do the same for CS(=O)(=O)Nc1ccc(NC(=O)c2cc(C(F)(F)F)cc(C(F)(F)F)c2)cc1F please
Ans: > 11

Q: Do the same for CCS(=O)(=O)Nc1ccc(NC(=O)c2ccc(Cl)c([N+](=O)[O-])c2)cc1F please
Ans: 10

Q: Do the same for CCS(=O)(=O)Nc1ccc(NC(=O)c2cccc(C(F)(F)F)c2)cc1OC please
Ans: > 7

Q: Do the same for Cc1cc(NC(=O)c2ccc(Cl)cc2)ccc1NS(=O)(=O)C(F)(F)F please
Ans: 5

Q: Do the same for Cc1cc(NC(=O)c2cccc(C(F)(F)F)c2)ccc1NS(C)(=O)=O please
Ans: 12

Q: Do the same for O=C(Nc1ccc(NS(=O)(=O)C(F)(F)F)c(Cl)c1)c1cc(C(F)(F)F)cc(C(F)(F)F)c1 please
Ans: > 5

Q: Do the same for CCS(=O)(=O)Nc1ccc(NC(=O)c2ccc(Cl)cc2)cc1Cl please
Ans: > 13

Q: Do the same for N#Cc1ccc(C(=O)Nc2ccc(NS(=O)(=O)C(F)(F)F)c(F)c2)cc1 please
Ans: > 119

###

Assay: Selectivity index, ratio of IC50 for mouse RAW264.7 cells to IC50 for Trypanosoma brucei brucei Lister 427
Type: toxicity
Conditions: read-out: Ratio IC50
Would you mind telling me the reported selectivity ratio of each entry?

Q: Any idea what selectivity ratio was measured for CCS(=O)(=O)Nc1ccc(NC(=O)c2ccc(Cl)cc2)cc1OC ?
Ans: < 1

Q: Do the same for O=C(Nc1ccc(NS(=O)(=O)C(F)(F)F)c(F)c1)c1cc(C(F)(F)F)cc(C(F)(F)F)c1 please
Ans: 12

Q: Do the same for CS(=O)(=O)Nc1ccc(NC(=O)c2cccc(C(F)(F)F)c2)cc1F please
Ans: < 1

Q: Do the same for CS(=O)(=O)Nc1ccc(NC(=O)c2cc(C(F)(F)F)cc(C(F)(F)F)c2)cc1F please
Ans: 5

Q: Do the same for CCS(=O)(=O)Nc1ccc(NC(=O)c2ccc(C#N)cc2)cc1C please
Ans: < 2

Q: Do the same for CCS(=O)(=O)Nc1ccc(NC(=O)c2ccc(Cl)c([N+](=O)[O-])c2)cc1C please
Ans: 7

Q: Do the same for CCS(=O)(=O)Nc1ccc(NC(=O)c2ccc(C#N)cc2)cc1Cl please
Ans: 6

Q: Do the same for CCS(=O)(=O)Nc1ccc(NC(=O)c2cccc(C(F)(F)F)c2)cc1Cl please
Ans: 8

Q: Do the same for CS(=O)(=O)Nc1ccc(NC(=O)c2cc(C(F)(F)F)cc(C(F)(F)F)c2)cc1Cl please
Ans: 7

Q: Do the same for O=C(Nc1ccc(NS(=O)(=O)C(F)(F)F)c(Cl)c1)c1cccc(C(F)(F)F)c1 please
Ans: < 1

###

Would you mind telling me the reported selectivity ratio of each entry?
Experiment: Selectivity index, ratio of IC50 for mouse RAW264.7 cells to IC50 for Trypanosoma brucei brucei Lister 427
Type: toxicity
Conditions: read-out: Ratio IC50

Q: Any idea what selectivity ratio was measured for COc1cc(NC(=O)c2ccc(C#N)cc2)ccc1NS(=O)(=O)C(F)(F)F ?
Ans: > 26

Q: Do the same for COc1cc(NC(=O)c2cccc(C(F)(F)F)c2)ccc1NS(=O)(=O)C(F)(F)F please
Ans: 2

Q: Do the same for N#Cc1ccc(C(=O)Nc2ccc(NS(=O)(=O)C(F)(F)F)c(Cl)c2)cc1 please
Ans: > 23

Q: Do the same for CCS(=O)(=O)Nc1ccc(NC(=O)c2cc(C(F)(F)F)cc(C(F)(F)F)c2)cc1OC please
Ans: > 22

Q: Do the same for CCS(=O)(=O)Nc1ccc(NC(=O)c2ccc(Cl)c([N+](=O)[O-])c2)cc1Cl please
Ans: 57

Q: Do the same for CCS(=O)(=O)Nc1ccc(NC(=O)c2ccc(Cl)cc2)cc1F please
Ans: < 3

Q: Do the same for CCS(=O)(=O)Nc1ccc(NC(=O)c2cc(C(F)(F)F)cc(C(F)(F)F)c2)cc1Cl please
Ans: 37

Q: Do the same for Cc1cc(NC(=O)c2ccc(C#N)cc2)ccc1NS(C)(=O)=O please
Ans: < 3

Q: Do the same for O=C(Nc1ccc(NS(=O)(=O)C(F)(F)F)c(F)c1)c1cccc(C(F)(F)F)c1 please
Ans: 1

Q: Do the same for Cc1cc(NC(=O)c2cccc(C(F)(F)F)c2)ccc1NS(=O)(=O)C(F)(F)F please
Ans: < 1

Q: Do the same for O=C(Nc1ccc(NS(=O)(=O)C(F)(F)F)c(Cl)c1)c1ccc(Cl)c([N+](=O)[O-])c1 please
Ans: 1

Q: Do the same for CS(=O)(=O)Nc1ccc(NC(=O)c2ccc(Cl)c([N+](=O)[O-])c2)cc1F please
Ans: < 2

Q: Do the same for N#Cc1ccc(C(=O)Nc2ccc(NS(=O)(=O)C(F)(F)F)c(F)c2)cc1 please
Ans: > 119

Q: Do the same for Cc1cc(NC(=O)c2ccc(Cl)cc2)ccc1NS(=O)(=O)C(F)(F)F please
Ans: 1

Q: Do the same for CS(=O)(=O)Nc1ccc(NC(=O)c2ccc(Cl)c([N+](=O)[O-])c2)cc1Cl please
Ans: < 1

Q: Do the same for CCS(=O)(=O)Nc1ccc(NC(=O)c2cc(C(F)(F)F)cc(C(F)(F)F)c2)cc1F please
Ans: > 28

Q: Do the same for Cc1cc(NC(=O)c2ccc(Cl)cc2)ccc1NS(C)(=O)=O please
Ans: < 2

Q: Do the same for Cc1cc(NC(=O)c2ccc(C#N)cc2)ccc1NS(=O)(=O)C(F)(F)F please
Ans: < 3

###

System: Trypanosoma brucei brucei
Assay: Antiparasitic activity against Trypanosoma brucei brucei Lister 427 assessed as reduction in parasite viability after 48 hrs by MTS assay
Format: functional, organism-based
Conditions: Lister 427, 48 h
Would you mind telling me the reported pIC50 of each entry?
In textbook form, pIC50 equals minus log to base ten of the concentration in mol/L.

Q: Any idea what pIC50 was measured for CS(=O)(=O)Nc1ccc(NC(=O)c2cc(C(F)(F)F)cc(C(F)(F)F)c2)cc1F ?
Ans: 4.63

Q: Do the same for CCS(=O)(=O)Nc1ccc(NC(=O)c2ccc(C#N)cc2)cc1Cl please
Ans: 4.42

Q: Do the same for O=C(Nc1ccc(NS(=O)(=O)C(F)(F)F)c(F)c1)c1cc(C(F)(F)F)cc(C(F)(F)F)c1 please
Ans: 5.03

Q: Do the same for CCS(=O)(=O)Nc1ccc(NC(=O)c2ccc(Cl)cc2)cc1Cl please
Ans: 4.72

Q: Do the same for O=C(Nc1ccc(NS(=O)(=O)C(F)(F)F)c(F)c1)c1ccc(Cl)c([N+](=O)[O-])c1 please
Ans: 4.77

Q: Do the same for CCS(=O)(=O)Nc1ccc(NC(=O)c2cccc(C(F)(F)F)c2)cc1F please
Ans: 4.47

Q: Do the same for CCS(=O)(=O)Nc1ccc(NC(=O)c2cc(C(F)(F)F)cc(C(F)(F)F)c2)cc1Cl please
Ans: 5.76

Q: Do the same for Cc1cc(NC(=O)c2cccc(C(F)(F)F)c2)ccc1NS(=O)(=O)C(F)(F)F please
Ans: 4.66

Q: Do the same for N#Cc1ccc(C(=O)Nc2ccc(NS(=O)(=O)C(F)(F)F)c(Cl)c2)cc1 please
Ans: 4.96

Q: Do the same for Cc1cc(NC(=O)c2cccc(C(F)(F)F)c2)ccc1NS(C)(=O)=O please
Ans: 4.78

Q: Do the same for O=C(Nc1ccc(NS(=O)(=O)C(F)(F)F)c(Cl)c1)c1cc(C(F)(F)F)cc(C(F)(F)F)c1 please
Ans: 4.32

Q: Do the same for CCS(=O)(=O)Nc1ccc(NC(=O)c2ccc(Cl)c([N+](=O)[O-])c2)cc1Cl please
Ans: 5.66

Q: Do the same for CCS(=O)(=O)Nc1ccc(NC(=O)c2cccc(C(F)(F)F)c2)cc1Cl please
Ans: 5.11

Q: Do the same for CCS(=O)(=O)Nc1ccc(NC(=O)c2cccc(C(F)(F)F)c2)cc1OC please
Ans: 4.45

Q: Do the same for Cc1cc(NC(=O)c2cc(C(F)(F)F)cc(C(F)(F)F)c2)ccc1NS(=O)(=O)C(F)(F)F please
Ans: 4.69

Q: Do the same for CCS(=O)(=O)Nc1ccc(NC(=O)c2cc(C(F)(F)F)cc(C(F)(F)F)c2)cc1F please
Ans: 5.06

Q: Do the same for Cc1cc(NC(=O)c2ccc(Cl)c([N+](=O)[O-])c2)ccc1NS(C)(=O)=O please
Ans: 5.12

Q: Do the same for COc1cc(NC(=O)c2ccc(C#N)cc2)ccc1NS(=O)(=O)C(F)(F)F please
Ans: 5.02

Q: Do the same for CCS(=O)(=O)Nc1ccc(NC(=O)c2ccc(Cl)c([N+](=O)[O-])c2)cc1F please
Ans: 5.08

Q: Do the same for O=C(Nc1ccc(NS(=O)(=O)C(F)(F)F)c(F)c1)c1cccc(C(F)(F)F)c1 please
Ans: 4.32

Q: Do the same for O=C(Nc1ccc(NS(=O)(=O)C(F)(F)F)c(Cl)c1)c1ccc(Cl)c([N+](=O)[O-])c1 please
Ans: 4.32
